# Test system: BCWM.1
# MEASUREMENT DESCRIPTION: MTS assay, BCWM.1
# Assay type: cell-based
# TEST PARAMETERS: BCWM1
VALUE KIND: IC50 (nM)
Answer in nM, number only, no unit symbol.

Which IC50 is reported for this compound? `CC(C)C[C@H](NC(=O)[C@H](Cc1ccccc1)NC(=O)c1cnccn1)B(O)O`
8.6

* * *

# System: bortezomib sensitive cells
# MEASUREMENT DESCRIPTION: Cell viability (MTS/CellTiter Glo), bortezomib sensitive multiple myeloma cells
# Assay type: cell-based
# Experimental: Methods: CD138+ cells from multiple myeloma patients, bortezomib-sensitive multiple myeloma cell lines (OPM2, KMS11 and U266) and their isogenic bortezomib resistant subclones were used in experiments. […] Affymetrix HT12v4 gene expression array and NanoString mRNA quantification were used for gene expression profiling (GEP), followed by qPCR for confirmation. […] Apoptosis was determined by annexin-V/[…] staining and MTS/CellTiter Glo assay used to determine cell viability.
VALUE KIND: pIC50
Worth noting: pIC50 values are minus log10 of concentrations stated in mol/L.

Fill in the blank: the reported pIC50 of CC(C)C[C@H](NC(=O)[C@H](Cc1ccccc1)NC(=O)c1cnccn1)B(O)O [Bortezomib, bortezomib] is ____.
8.40

* * *

# Tested on: MWCL.1
# MEASUREMENT DESCRIPTION: MTS assay, MWCL.1
# Assay type: cell-based
VALUE KIND: pIC50
In simple prose, pIC50 is minus the logarithm base ten of a concentration in moles per litre.

Which measured pIC50 value corresponds to `CC(C)C[C@H](NC(=O)[C@H](Cc1ccccc1)NC(=O)c1cnccn1)B(O)O` ?
7.99

* * *

Field: IC50. Provide a value for each of the molecules that follow.
# MEASURED ON: B1i (Homo sapiens)
# Construct: endogenous in cells; host or cells: OPM2 and OPM2/BR multiple myeloma cell lines
# MEASUREMENT DESCRIPTION: In vitro enzymatic potency of dual-β5/β1i inhibitors (Table 2)
# Type: biochemical
# TEST PARAMETERS: first column of Table 2
Non-standard residues stand in square brackets, D forms with d. Residues, ends and D or L forms follow the SMILES beside them. ξ: configuration not given here. *: point of attachment. Hydrocinnamoyl = O=C(CCc1ccccc1)*; ξF = NC(Cc1ccccc1)C(=O)O; Cbz = O=C(OCc1ccccc1)*
Write the number in µM without appending the unit.

Report IC50 for CC(C)C[C@H](NC(=O)OCc1ccccc1)C(=O)NC(C=O)Cc1ccccc1 (stereo partly drawn) [Compound 6-2] (Cbz-Leu-[ξF]-aldehyde) please.
1

Another molecule to check: CC(C)[C@H](NC(=O)c1ccncc1)C(=O)NC(C=O)Cc1ccccc1 (some centres unmarked) [Compound 12-2]
5

Follow-up item: O=CC(Cc1ccccc1)NC(=O)[C@H](Cc1ccccc1)NC(=O)OCc1ccccc1 (stereo partly drawn) [Compound 7-2] (Cbz-Phe-[ξF]-aldehyde)
5

Next record, please: CC(C)[C@H](NC(=O)CCc1ccccc1)C(=O)NC(C=O)Cc1ccccc1 (some centres unmarked) [Compound 1-2] (Hydrocinnamoyl-Val-[ξF]-aldehyde)
1

* * *

# Tested on: RPCI.WM1/BR
# MEASUREMENT DESCRIPTION: MTS assay, RPCI.WM1/BR
# Type: cell-based
# TEST PARAMETERS: bortezomib-resistant subclone
VALUE KIND: IC50 (nM)
# unit: nM | format: bare number

Find IC50 (RPCI.WM1/BR) for the entry CC(C)C[C@H](NC(=O)[C@H](Cc1ccccc1)NC(=O)c1cnccn1)B(O)O [Bortezomib, bortezomib]
114
